- Target desc: CCR2b (Homo sapiens)
- Construct: host or cells: AequoScreen CCR2b cells
- Sequence (P41597 1-360 isoform P41597-2): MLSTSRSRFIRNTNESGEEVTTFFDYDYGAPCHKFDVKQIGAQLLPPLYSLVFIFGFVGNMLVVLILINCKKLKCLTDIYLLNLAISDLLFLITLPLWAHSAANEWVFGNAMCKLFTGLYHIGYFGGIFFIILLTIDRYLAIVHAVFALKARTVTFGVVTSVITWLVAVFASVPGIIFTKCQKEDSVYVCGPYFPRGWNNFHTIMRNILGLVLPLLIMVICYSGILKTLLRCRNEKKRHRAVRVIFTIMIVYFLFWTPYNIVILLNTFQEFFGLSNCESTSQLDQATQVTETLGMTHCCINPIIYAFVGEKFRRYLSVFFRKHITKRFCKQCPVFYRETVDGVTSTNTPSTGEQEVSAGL
- Assay: AequoScreen CCR2b calcium flux assay, antagonist mode against reference agonist MCP-1
- Assay type: cell-based
- Assay conditions: AequoScreen CCR2b (FAST-060A) cells; inhibition of reference agonist MCP-1 at its EC80; read-out: IC50 (μM) Ca^++flux
- Description: The biological activity of the compounds described herein can be evaluated using assays known in the art, such as the AequoScreen™ assay. […] For agonist testing, 50 μL of cell suspension is mixed with 50 μL of test compound in a 96-well plate. The resulting emission of light is recorded using a Hamamatsu Functional Drug Screening System 6000 (FDSS 6000). […] Agonist activity of a test compound can be expressed as a percentage of the activity of the reference agonist at its EC100 concentration. […]
Measured endpoint: IC50

Compound: CCOCC1(C(=O)N2CCc3ncc(C(F)(F)F)cc3C2)CCN(Cc2ccc3oc(=O)n(C)c3c2)C1 (centres unmarked) [Example 45]
Target desc: CCR2b (Homo sapiens)
IC50: < 0.2 µM

Compound: Cn1c(=O)sc2ccc(CN3CCC(CC4CC4)(C(=O)N4CCc5ncc(C(F)(F)F)cc5C4)C3)cc21 (centres unmarked) [Example 11]
Target desc: CCR2b (Homo sapiens)
IC50: < 0.2 µM

Compound: COCC1(C(=O)N2CCc3ncc(C(F)(F)F)cc3C2)CCN(Cc2cc3c(cc2Cl)oc(=O)n3C)C1 (centres unmarked) [Example 37]
Target desc: CCR2b (Homo sapiens)
IC50: < 0.2 µM

Compound: COCC1(C(=O)N2CCc3ncc(C(F)(F)F)cc3C2)CCN(Cc2ccc3oc(=O)n(C)c3c2)C1 (single isomer, unassigned) [Example 40, 41 (Enantiomer II)]
Target desc: CCR2b (Homo sapiens)
IC50: 0.2 to 1 µM

Compound: COc1cc(CN2CCC(CC(C)C)(C(=O)N3CCc4ncc(C(F)(F)F)cc4C3)CC2)ccc1O [Example 2]
Target desc: CCR2b (Homo sapiens)
IC50: > 1 µM

Compound: COCC1(C(=O)N2CCc3ncc(C(F)(F)F)cc3C2)CCN(Cc2ccc3oc(=O)n(C)c3c2)C1 (single isomer, unassigned) [Example 40, 41 (Enantiomer I)]
Target desc: CCR2b (Homo sapiens)
IC50: < 0.2 µM

Give its IC50 value. Item: CC(C)CC1(C(=O)N2CCc3ncc(C(F)(F)F)cc3C2)CCN(Cc2ccc3oc(=O)n(C)c3c2)C1 (centres unmarked) [Example 24]
< 0.2 µM

Can you check CC(C)CC1(C(=O)N2CCc3ncc(C(F)(F)F)cc3C2)CCN(Cc2ccc3ccc(=O)n(C)c3c2)CC1 [Example 1] next?
0.2 to 1 µM

Can you check COCC1(C(=O)N2CCc3ncc(C(F)(F)F)cc3C2)CCN(C2CCC(O)(c3ccc(OC)nc3)CC2)C1 (single isomer, unassigned) [Example 30, 31 (Isomer II)] next?
> 1 µM

Source of measurements: patent US20100286136A1
